ASSAY SUMMARY: ACEA_ER_80hr: ACEA Biosciences xCELLigence Real-Time Cell Analysis on Estrogen Receptor Agonism for Proliferation (AID 2282667)
CONDITION PARAMETERS: T47D proliferation, impedance (xCELLigence), 80 h
Results filed as inconclusive are left out. The source made the active and inactive calls. The calls were made as follows: active = hit-call score of the fitted dose curve at least 0.9, where 1 is the maximum; inconclusive = response in the unintended direction; inactive = score below 0.9.
Labels: label 1 = active, label 0 = inactive

>  <SMILES DATA>
CCCC(CCC)C(=O)O

>  <GROUP>
label 0

$$$$
>  <SMILES DATA>
c1ccc2cc3ccccc3cc2c1

>  <GROUP>
label 0

$$$$
>  <SMILES DATA>
OC(O)(C(F)C(O)(O)C(F)(F)F)C(F)(F)F

>  <GROUP>
label 0

$$$$
>  <SMILES DATA>
OCc1c[nH]c2ccccc12

>  <GROUP>
label 0

$$$$
>  <SMILES DATA>
NCC(F)(F)C(F)(F)C(F)(F)C(F)(F)F

>  <GROUP>
label 0

$$$$
>  <SMILES DATA>
CCCc1ccccc1

>  <GROUP>
label 0

$$$$
>  <SMILES DATA>
Cn1cc[nH]c1=S

>  <GROUP>
label 0

$$$$
>  <SMILES DATA>
OC(CCl)CCl

>  <GROUP>
label 0

$$$$
>  <SMILES DATA>
CCCCCCOC(=O)CC(CC(=O)OCCCCCC)(OC(=O)CCC)C(=O)OCCCCCC

>  <GROUP>
label 1

$$$$

====

Read-out: CYP2E1 (gene 1571)
ASSAY SUMMARY: LTEA_HepaRG_CYP2E1: Life Technologies and Expression Analysis (LTEA) Assay for CYP2E1 using HepaRG (AID 2283485)
CONDITION PARAMETERS: mRNA level, 48 h; actives raise or lower the signal
The source made the active and inactive calls. The calls were made as follows: active = hit-call score of the fitted dose curve at least 0.9, where 1 is the maximum; inactive = score below 0.9.
Outcomes: TRUE = active, FALSE = inactive

>  <COMPOUND>
CCCCCCCCN(C)C

>  <GROUP>
FALSE

$$$$
>  <COMPOUND>
Cc1ncc([C@@H](CCCCCCc2ccc3c(n2)NCCC3)CC(=O)O)cn1

>  <GROUP>
TRUE

$$$$
>  <COMPOUND>
COS(C)(=O)=O

>  <GROUP>
FALSE

$$$$
>  <COMPOUND>
CCCOc1ccc(S(=O)(=O)N2CCN(CC)CC2)cc1-c1nc2c(CC)n(Cc3ccccn3)nc2c(=O)[nH]1

>  <GROUP>
TRUE

$$$$
>  <COMPOUND>
CCCCOC(=O)c1ccccc1

>  <GROUP>
FALSE

$$$$
>  <COMPOUND>
O=S1(=O)CCCO1

>  <GROUP>
FALSE

$$$$
>  <COMPOUND>
CCCc1ccccc1

>  <GROUP>
FALSE

$$$$
>  <COMPOUND>
CC(=O)c1ccccc1

>  <GROUP>
FALSE

$$$$
>  <COMPOUND>
O=C1CN(N=Cc2ccc([N+](=O)[O-])o2)C(=O)N1

>  <GROUP>
TRUE

$$$$
>  <COMPOUND>
CCCCN1C(=O)[C@@H]([C@H](O)C2CCCCC2)NC(=O)C12CCN(Cc1ccc(Oc3ccc(C(=O)O)cc3)cc1)CC2

>  <GROUP>
TRUE

$$$$
>  <COMPOUND>
NC(=O)NN=Cc1ccc([N+](=O)[O-])o1

>  <GROUP>
TRUE

$$$$
>  <COMPOUND>
OCCNCCO

>  <GROUP>
TRUE

$$$$
>  <COMPOUND>
OCc1ccccc1

>  <GROUP>
FALSE

$$$$
>  <COMPOUND>
O=C(O)c1cccc(C[C@@H]2COc3ccc(OCc4nc5cc(F)ccc5s4)cc3[C@@H]2O)c1

>  <GROUP>
TRUE

$$$$
>  <COMPOUND>
Cn1c(=O)c2[nH]cnc2n(C)c1=O

>  <GROUP>
FALSE

$$$$
>  <COMPOUND>
CNC(C)=O

>  <GROUP>
FALSE

$$$$
>  <COMPOUND>
CCCCCOC(C)=O

>  <GROUP>
FALSE

$$$$
>  <COMPOUND>
O=C(O)c1ccc2c(c1)nc(C(=O)NC1CCN(C3CC3)CC1)n2Cc1cc(-c2ccc(Cl)s2)on1

>  <GROUP>
FALSE

$$$$
>  <COMPOUND>
CC(C)c1nnc2ccc(-c3ocnc3-c3cc(F)ccc3F)cn12

>  <GROUP>
TRUE

$$$$
>  <COMPOUND>
NC(=O)N1c2ccccc2C=Cc2ccccc21

>  <GROUP>
TRUE

$$$$
>  <COMPOUND>
CC(C)CC(C)O (stereo unspecified)

>  <GROUP>
FALSE

$$$$
>  <COMPOUND>
O=c1[nH]cnc2c1ncn2[C@H]1CC[C@@H](CO)O1

>  <GROUP>
FALSE

$$$$
>  <COMPOUND>
Cc1nc(-c2ccccn2)ncc1C(=O)Nn1cc(C)c2cc(F)ccc21

>  <GROUP>
TRUE

$$$$
>  <COMPOUND>
COc1cc(C(C)C)c2c(c1)S(=O)(=O)N(COc1cc(=O)n3cccc(OCCN4CCCCC4)c3n1)C2=O

>  <GROUP>
TRUE

$$$$
>  <COMPOUND>
C=CN1CCCC1=O

>  <GROUP>
FALSE

$$$$
>  <COMPOUND>
O=S(=O)(O)c1ccc(N=Nc2c(O)ccc3cc(S(=O)(=O)O)ccc23)cc1

>  <GROUP>
FALSE

$$$$
>  <COMPOUND>
C=CCc1cc(S(=O)(=O)c2ccc(O)c(CC=C)c2)ccc1O

>  <GROUP>
TRUE

$$$$
>  <COMPOUND>
O=C(O)c1cccc(C(=O)O)c1

>  <GROUP>
FALSE

$$$$
>  <COMPOUND>
Cn1cc[nH]c1=S

>  <GROUP>
FALSE

$$$$
>  <COMPOUND>
OC(CCl)CCl

>  <GROUP>
FALSE

$$$$
>  <COMPOUND>
OC[C@H]1O[C@@H]2O[C@H]3[C@H](O)[C@@H](O)[C@@H](O[C@H]4[C@H](O)[C@@H](O)[C@@H](O[C@H]5[C@H](O)[C@@H](O)[C@@H](O[C@H]6[C@H](O)[C@@H](O)[C@@H](O[C@H]7[C@H](O)[C@@H](O)[C@@H](O[C@H]1[C@H](O)[C@H]2O)O[C@@H]7CO)O[C@@H]6CO)O[C@@H]5CO)O[C@@H]4CO)O[C@@H]3CO

>  <GROUP>
FALSE

$$$$

Recorded values, source PubChem BioAssay (EPA / NIEHS).
